target: His-His-USP7 (aa208-560, |C315A|) (Homo sapiens, UniProt Q93009, C315A); construct: His-His-USP7 (aa208-560, |C315A|); His-His (N); assay: Evaluation of the inhibition of USP7 by the Fluorescence Intensity (FLINT) readings; type: biochemical; conditions: 0.25 nM His-His-USP7, compound incubated 60 minutes at 30° C., 500 nM Ubiquitin-Rhodamine-110 substrate; 50% reduction in kinetic rate
Sequence (Q93009 208-560 C315A): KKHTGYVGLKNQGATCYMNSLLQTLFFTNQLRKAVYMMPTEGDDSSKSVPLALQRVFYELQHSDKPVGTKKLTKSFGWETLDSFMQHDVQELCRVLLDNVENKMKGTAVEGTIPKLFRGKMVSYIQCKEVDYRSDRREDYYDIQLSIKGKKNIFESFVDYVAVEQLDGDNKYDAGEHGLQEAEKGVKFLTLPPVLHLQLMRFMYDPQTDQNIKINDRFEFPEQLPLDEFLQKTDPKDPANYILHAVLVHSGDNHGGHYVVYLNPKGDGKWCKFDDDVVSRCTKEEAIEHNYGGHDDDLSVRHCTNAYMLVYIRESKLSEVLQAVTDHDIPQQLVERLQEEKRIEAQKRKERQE
In this scheme, each record receives a class according to its IC50; the ranges are L (below 30 nM), M (30 nM to below 200 nM), H (200 nM or more)

Illustrative cases are given below, each with its answer.
# Compound, Class Assignment
records = [
    ("NCc1ccc(Oc2ncn(CC3(O)CCN(C(=O)[C@@H]4CCC(F)(F)C[C@H]4c4ccccc4)CC3)c(=O)c2N)cc1Cl", "L"),
    ("C#C[C@@]1(F)CC[C@@H](C(=O)N2CCC(O)(Cn3cnc(Oc4ccc(F)cc4)c(N)c3=O)CC2)[C@H](c2ccccc2)C1", "M"),
    ("Nc1c(Oc2ccc(F)cc2)ncn(CC2(O)CCN(C(=O)[C@@H]3CC[C@@](F)(Cc4ccccn4)C[C@H]3c3ccccc3)CC2)c1=O (relative stereo)", "M"),
    ("O=C([C@@H]1CCC(F)(F)C[C@H]1c1ccccc1)N1CCC(O)(Cn2cnc(Oc3ccc(F)cc3)c(NCc3ccccc3)c2=O)CC1", "H"),
    ("Nc1c(Oc2ccc(F)cc2)ncn(C[C@@]2(O)CCN(C(=O)[C@@H]3CC[C@](F)(C#Cc4ncccn4)C[C@H]3c3ccccc3)CC2(F)F)c1=O", "L"),
]

Q) Band for Nc1c(Oc2ccc(CCC3CCCCN3)cc2)ncn(CC2(O)CCN(C(=O)[C@@H]3CCC(F)(F)C[C@H]3c3ccccc3)CC2)c1=O (stereo partly drawn) ?
A) M

Q) Quick check: band for Nc1c(Oc2ccc(F)cc2)ncn(CC2(O)CCN(C(=O)[C@@H]3CC[C@](O)(Cc4cnccn4)C[C@H]3c3ccccc3)CC2)c1=O (relative stereo)
A) H

Q) Into which category would you place Nc1c(Oc2ccc([C@@H](N)C(F)(F)F)cc2)ncn(CC2(O)CCN(C(=O)[C@@H]3CCC(F)(F)C[C@H]3c3ccccc3)CC2)c1=O ?
A) M

Q) Entry Nc1c(Oc2ccc(F)cc2)ncn(C[C@]2(O)CCN(C(=O)[C@@H]3CCC(F)(F)C[C@H]3c3ccccc3)CC2(F)F)c1=O belongs to which category?
A) H

Q) Class label required: NC(=O)c1ccc(Oc2ncn(CC3(O)CCN(C(=O)[C@@H]4CCC(F)(F)C[C@H]4c4ccccc4)CC3)c(=O)c2N)c(Cl)c1
A) H

Q) Category of Nc1c(Oc2ccc(F)cc2)ncn(CC2(O)CCN(C(=O)[C@@H]3CC[C@](F)(C#Cc4cccnn4)C[C@H]3c3ccccc3)CC2)c1=O :
A) L

Q) Exam item: assign Nc1c(Oc2cccc(C3CCCCN3)c2)ncn(CC2(O)CCN(C(=O)[C@@H]3CCC(F)(F)C[C@H]3c3ccccc3)CC2)c1=O (stereo partly drawn) to the correct category.
A) L

* * *

Target: His-His-USP7 (aa208-560, |C315A|) (Homo sapiens, UniProt Q93009, C315A)
Construct: His-His-USP7 (aa208-560, |C315A|); His-His (N)
Test: Evaluation of the inhibition of USP7 by the Fluorescence Intensity (FLINT) readings
Format: biochemical
Settings: 0.25 nM His-His-USP7, compound incubated 60 minutes at 30° C., 500 nM Ubiquitin-Rhodamine-110 substrate; 50% reduction in kinetic rate
Experimental: USP7 activity was measured using Rhodamine-110 c-terminal labelled Ubiquitin as a substrate (UbiQ Bio). Incubation with USP7 results in the release of Rhodamine-110 leading to an increase in fluorescence which can be used in the continuous measurement of USP7 activity. […] The inhibition of increasing doses of compound was expressed as a percentage reduction in kinetic rate compared to the kinetic rates established between ‘DMSO only’ and ‘total inhibition’ controls (no USP7). […]
# IC50 per entry
Please state the figure in µM; there is no need to write the unit.

# Molecule, Result Type, Output Unit, Observed Measurement
rows = [
    ("Cc1cnc(C#C[C@]2(F)CC[C@@H](C(=O)N3CCC(O)(Cn4cnc(Oc5ccc(F)cc5)c(N)c4=O)CC3)[C@H](c3ccccc3)C2)cn1", "IC50", "µM", 0.0114),
    ("Nc1c(Oc2ccc(F)cc2)ncn(CC2(O)CCN(C(=O)[C@@H]3CC[C@](F)(C#Cc4cccnc4)C[C@H]3c3ccccc3)CC2)c1=O", "IC50", "µM", 0.017),
    ("Cn1ccnc1C[C@@]1(O)CC[C@@H](C(=O)N2CCC(O)(Cn3cnc(Oc4ccc(F)cc4)c(N)c3=O)CC2)[C@H](c2ccccc2)C1 (relative stereo)", "IC50", "µM", 0.363),
    ("Cc1ccc(Oc2ncn(CC3(O)CCN(C(=O)[C@@H]4CCC(F)(F)C[C@H]4c4ccccc4)CC3)c(=O)c2N)cc1O", "IC50", "µM", 0.0221),
    ("Nc1cccc(C#C[C@@]2(F)CC[C@@H](C(=O)N3CCC(O)(Cn4cnc(Oc5ccc(F)cc5)c(N)c4=O)CC3)[C@H](c3ccccc3)C2)n1", "IC50", "µM", 0.0294),
]

Let's switch to this molecule now.
Q) What value of measured IC50 is listed for Nc1c(Oc2ccc(F)cc2)ncn(CC2(O)CCN(C(=O)[C@@H]3CC[C@@](F)(C#Cc4cncnc4)C[C@H]3c3ccccc3)CC2)c1=O ?
A) 0.0691
